Biological target: T1, human BDCA2 (human, UniProt Q8WTT0 1-213)
T1 construct: whole, on cells; also called hBDCA2; Blood dendritic cell antigen 2
T1 sequence (looked up): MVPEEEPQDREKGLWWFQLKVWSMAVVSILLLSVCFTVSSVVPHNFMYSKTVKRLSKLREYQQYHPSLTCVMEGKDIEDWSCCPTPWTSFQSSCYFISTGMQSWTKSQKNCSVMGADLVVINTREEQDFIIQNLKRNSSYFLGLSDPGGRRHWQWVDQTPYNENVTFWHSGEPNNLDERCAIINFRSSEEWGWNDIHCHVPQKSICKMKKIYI
Assay: FACS on CHOK1-hBDCA2 cells; EC50 table beside the plot, unit from the x axis (nM) [continued) c.]
We label by threshold. Values of EC50 strictly beneath 0.6 nM are t. Values of 0.6 nM and up are f.

Please check: EC50 for mab024c (antibody, V domains shown) VH: EVQLVESGGDLVKPGGSLKLSCAASGFTFSSFGMSWVRQTPDKRLDWVATISSGDSYTYYPDSVKGRFSISRDNAKNTLYLQMSSLKSEDTAVYYCARQIYYDYAYYFDYWGQGTTLTVSS VL: DIVLTQSPASLAVSLGQRATISCRASESVSFRSSHLMHWYRQKPGQPPKLLIYAASNLESGVPARFSGSGSETDFTLNIHPVEEEDAAAYFCQQSIEDPPTFGGGTKLEIK , strictly under 0.6 nM or not?
t

Please check: EC50 for mab021c (antibody, V domains shown) VH: DVQLQESGPGLVKPSQSLSLTCSVTGYSITSAYYWNWIRQFPGNKLECMGYITYDGNNYYSPSLKNRISITRDTSKNQFFLNLNSVTTEDTATYFCARGGDYDDGGFAFWGQGTLVTVSA VL: DIQMTQSPASLSASVGETVTITCRASGNIHNYLAWYHQKQGKSPQLLVYNAKSLVDGVPSRFSGSGSGTQYSLRINSLQPEDFGSYYCQHFWIVPYTFGGGTKLEII , strictly under 0.6 nM or not?
t

Please check: EC50 for mab020c (antibody, V domains shown) VH: DVQLQESGPGLVKPSQSLSLTCSVTGYSIASGYYWNWIRQFPGNKLEWMGYISFDGTYNYNPSLKDRFSITRDTSKNQFFLKLNSVTTEDTATYYCARGVDYPNAIDWWGQGTSVTVSS VL: DIVLTQSPASLAVSLGQRATISCRASESVSMHVTHLIHWYQQKPGQPPKLLIYVASNLESGVPARFSGSGSETDFTLNIHPVEEEDAATYFCQQSFEDPWTFGGGTKLEIK , strictly under 0.6 nM or not?
f

Please check: EC50 for mab019c (antibody, V domains shown) VH: EVKLVESGGDLVQPGGSLKLSCAASGFTFSDYYMYWVRQTPEKRLEWVAYISYSGDSTYYPDTVKGRFTISRDNAKNTLFLQMSRLKSEDTAMYYCARHSPSFPYYFDYWGQGTALTVSS VL: EIVLTQSPAITAASLGQKVTITCSASSSVSYMHWYQQKSGTSPKPWIYEISKLASGVPARFSGSGSGTSYSLTISSMEAEDAAIYYCQLWNYPLITFGGGTNLEIK , strictly under 0.6 nM or not?
f

Okay, now this binder:
Please check: EC50 for mab027c (antibody, V domains shown) VH: DVQLQESGPGLVKPSQSLSLTCSVTGYSITSAYYWNWVRQFPGNQLECMGYITYDGSNNYNPSLKNRISITRDTSKNQFFLKLNSVTTEDTATYYCVRGGDYDDGGFAYWGQGTLVTVSA VL: DIQMTQSPASLSASVGETVTITCRASGNIHNYLAWYQQKQGKSPQLLVYNAKTLVDGVPSRFSGSGSGTEYSLKINSLQPEDFGIYFCQHFWIIPYTFGGGTKLEIR , strictly under 0.6 nM or not?
t

Values compiled from patent US20250346673A1.
